test: Aqueous solubility of compound; format: physicochemical; conditions: aqueous (not further specified)
Task for the reader: assign each of the following compounds its reported solubility.
The reply should contain only the number, in µg/mL.

Which value of solubility has been reported for O=c1oc2c(O)c(O)cc3c(=O)oc4c(O)c(O)cc1c4c23 in the records?
9.7

Which value of solubility has been reported for N[C@@H](Cc1ccc(O)c(O)c1)C(=O)NCCCCCNc1cccc2c1C(=O)N(C1CCC(=O)NC1=O)C2=O (stereo partly drawn) in the records?
11400

Which value of solubility has been reported for O=c1cc(CO)occ1O in the records?
55

###

Task for the reader: assign each of the following molecules its reported Activity.
target: Protein cereblon/Tyrosinase (Homo sapiens) (UniProt P14679+Q96SW2); experiment: Protac activity at CRBN E3 ubiquitin ligase/tyrosinase in human A375 cells assessed as induction of tyrosinase degradation at 50 uM measured after 24 hrs by immunoblotting analysis relative to control; type: cell-based; settings: A-375
Sequence (P14679 whole entry, looked up): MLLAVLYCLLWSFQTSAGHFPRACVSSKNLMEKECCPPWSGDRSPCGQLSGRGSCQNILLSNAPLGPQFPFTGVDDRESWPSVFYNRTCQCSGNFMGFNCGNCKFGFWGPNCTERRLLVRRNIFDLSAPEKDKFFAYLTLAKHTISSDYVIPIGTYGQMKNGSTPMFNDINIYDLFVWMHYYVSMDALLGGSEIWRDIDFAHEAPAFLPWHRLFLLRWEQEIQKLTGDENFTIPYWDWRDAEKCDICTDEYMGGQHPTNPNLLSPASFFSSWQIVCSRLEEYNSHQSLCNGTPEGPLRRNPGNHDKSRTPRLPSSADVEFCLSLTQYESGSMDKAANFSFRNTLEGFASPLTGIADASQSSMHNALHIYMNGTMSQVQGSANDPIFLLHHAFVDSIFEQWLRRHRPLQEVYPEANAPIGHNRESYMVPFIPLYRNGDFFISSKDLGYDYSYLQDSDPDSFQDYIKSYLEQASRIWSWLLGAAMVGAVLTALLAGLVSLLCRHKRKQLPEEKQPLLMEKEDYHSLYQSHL
Sequence (Q96SW2 whole entry, looked up): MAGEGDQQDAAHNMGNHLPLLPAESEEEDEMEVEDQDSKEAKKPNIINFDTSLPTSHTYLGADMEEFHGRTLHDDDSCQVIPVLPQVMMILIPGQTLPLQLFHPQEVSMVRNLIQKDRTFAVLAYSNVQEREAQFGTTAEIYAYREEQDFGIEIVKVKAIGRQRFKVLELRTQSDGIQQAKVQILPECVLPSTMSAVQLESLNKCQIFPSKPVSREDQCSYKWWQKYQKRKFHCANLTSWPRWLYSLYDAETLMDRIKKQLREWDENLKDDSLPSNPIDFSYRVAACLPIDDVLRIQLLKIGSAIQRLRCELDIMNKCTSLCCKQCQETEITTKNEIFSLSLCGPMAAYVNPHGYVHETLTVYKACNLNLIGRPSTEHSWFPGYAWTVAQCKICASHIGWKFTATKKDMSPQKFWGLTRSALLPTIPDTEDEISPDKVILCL
The reply should contain only the number, in %.

Which value of Activity has been reported for N[C@@H](Cc1ccc(O)c(O)c1)C(=O)NCCCCCNc1cccc2c1C(=O)N(C1CCC(=O)NC1=O)C2=O (some centres undefined) in the records?
46

Which value of Activity has been reported for N[C@@H](Cc1ccc(O)c(O)c1)C(=O)NCCCCCCCCCCNc1cccc2c1C(=O)N(C1CCC(=O)NC1=O)C2=O (some centres undefined) in the records?
37

Which value of Activity has been reported for N[C@@H](Cc1ccc(O)c(O)c1)C(=O)NCCCCCCCCNc1cccc2c1C(=O)N(C1CCC(=O)NC1=O)C2=O (some centres undefined) in the records?
38
